Target: T1, cynomolgus monkey CD3 on cynomolgus monkey PBMC or T cell line HSC-F (cynomolgus monkey, UniProt Q95LI5 22-198)
T1 construct: whole, on cells; Native CD3 complex on monkey T cells; also called cynomolgus monkey CD3 (PBMC); cynomolgus monkey CD3 antigen
T1 sequence (Q95LI5 22-198): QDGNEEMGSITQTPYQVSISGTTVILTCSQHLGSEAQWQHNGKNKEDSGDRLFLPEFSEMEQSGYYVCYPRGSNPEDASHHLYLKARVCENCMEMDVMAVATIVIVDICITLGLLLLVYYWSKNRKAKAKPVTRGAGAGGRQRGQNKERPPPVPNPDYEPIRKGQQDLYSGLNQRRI
Assay: flow cytometry on cynomolgus monkey PBMC

BINDER: C3E-7092 (CDR modified humanized anti-CD3 scFv) (scFv, C3E-7079 with glutamine for aspartic acid at position 52 of the VL; the change is already in the entry) scFv: GEVQLVESGGGLVQPGGSLRLSCAASGVTFNYYGMSWIRQAPGKGLEWVASITSSGGRIYYPDSVKGRFTISRENTQKTLYLQMNSLRAEDTAVYYCTLDGRDGWVAYWGQGTLVTVSSGGGGSGGGGSGGGGSNFMLTQPHSVSESPGKTVTISCKRNTGNIGSNYVNWYQQHEGSSPTTIIYRQDKRPDGVSDRFSGSIDRSSKSASLTISNLKTEDEADYFCQSYSSGFIFGGGTKLTVLGAAAGAGGDYKDDDDKGAAAHHHHHH
binding result: binds

BINDER: C3E-7036 (humanized anti-CD3 scFv) (scFv) scFv: GEVQLVESGGGLVQPGGSLRLSCAASGVTFNYYGMSWIRQAPGKGLEWVASITNSGGRIYYPDSVKGRFTISRENTQKTLYLQMNSLRAEDTAVYYCTLDGRDGWVAYWGQGTLVTVSSGGGGSGGGGSGGGGSNFMLTQPSSVSGVPGQRVTISCTGNTGNIGSNYVNWYQQLPGTAPKLLIYRDDKRPSGVPDRFSGSKSGTSASLAITGFQAEDEADYYCQSYSSGFIFGGGTKLTVLGAAAGAGGDYKDDDDKGAAAHHHHHH
binding result: binds

BINDER: C3E-7086 (CDR modified humanized anti-CD3 scFv) (scFv, C3E-7078 with glycine for aspartic acid at position 52 of the VL; the change is already in the entry) scFv: GEVQLVESGGGLVQPGGSLRLSCAASGVTFNYYGMSWIRQAPGKGLEWVASITRSGGRIYYPDSVKGRFTISRENTQKTLYLQMNSLRAEDTAVYYCTLDGRDGWVAYWGQGTLVTVSSGGGGSGGGGSGGGGSNFMLTQPHSVSESPGKTVTISCKRNTGNIGSNYVNWYQQHEGSSPTTIIYRGDKRPDGVSDRFSGSIDRSSKSASLTISNLKTEDEADYFCQSYSSGFIFGGGTKLTVLGAAAGAGGDYKDDDDKGAAAHHHHHH
binding result: binds

BINDER: C3E-7078 (CDR modified humanized anti-CD3 scFv) (scFv, the change is already in the entry) scFv: GEVQLVESGGGLVQPGGSLRLSCAASGVTFNYYGMSWIRQAPGKGLEWVASITRSGGRIYYPDSVKGRFTISRENTQKTLYLQMNSLRAEDTAVYYCTLDGRDGWVAYWGQGTLVTVSSGGGGSGGGGSGGGGSNFMLTQPHSVSESPGKTVTISCKRNTGNIGSNYVNWYQQHEGSSPTTIIYRDDKRPDGVSDRFSGSIDRSSKSASLTISNLKTEDEADYFCQSYSSGFIFGGGTKLTVLGAAAGAGGDYKDDDDKGAAAHHHHHH
binding result: binds

BINDER: C3E-7089 (CDR modified humanized anti-CD3 scFv) (scFv, C3E-7078 with serine for aspartic acid at position 52 of the VL; the change is already in the entry) scFv: GEVQLVESGGGLVQPGGSLRLSCAASGVTFNYYGMSWIRQAPGKGLEWVASITRSGGRIYYPDSVKGRFTISRENTQKTLYLQMNSLRAEDTAVYYCTLDGRDGWVAYWGQGTLVTVSSGGGGSGGGGSGGGGSNFMLTQPHSVSESPGKTVTISCKRNTGNIGSNYVNWYQQHEGSSPTTIIYRSDKRPDGVSDRFSGSIDRSSKSASLTISNLKTEDEADYFCQSYSSGFIFGGGTKLTVLGAAAGAGGDYKDDDDKGAAAHHHHHH
binding result: binds

BINDER: C3E-7088 (CDR modified humanized anti-CD3 scFv) (scFv, C3E-7078 with asparagine for aspartic acid at position 52 of the VL; the change is already in the entry) scFv: GEVQLVESGGGLVQPGGSLRLSCAASGVTFNYYGMSWIRQAPGKGLEWVASITRSGGRIYYPDSVKGRFTISRENTQKTLYLQMNSLRAEDTAVYYCTLDGRDGWVAYWGQGTLVTVSSGGGGSGGGGSGGGGSNFMLTQPHSVSESPGKTVTISCKRNTGNIGSNYVNWYQQHEGSSPTTIIYRNDKRPDGVSDRFSGSIDRSSKSASLTISNLKTEDEADYFCQSYSSGFIFGGGTKLTVLGAAAGAGGDYKDDDDKGAAAHHHHHH
binding result: binds
